assay: Pharmacokinetics in mice after single intragastric or intravenous administration; format: in vivo; details: female, BALB/c nude, mouse, plasma, po, single intragastric administration, 50 mg/kg
Result Type: AUC(0-t) (ng·h/mL)

* COc1c(=O)n(C2(CF)CC2)cc2c(N[C@H](C)c3cccc(C(F)F)c3F)nc(C)nc12 [Example 1] | 17800

---

system: p-ERK pathway in H358 cells; assay: p-ERK pathway inhibition in H358 cells (Advanced phospho-ERK (Thr202/Tyr204) cellular kit, HTRF); format: cell-based; details: Homo sapiens, NCI-H358, 1 h compound incubation
pIC50: −log10 of the molar value.
Result Type: pIC50

* Cc1nc(N[C@H](C)c2cccc(C(F)F)c2F)c2cn(N3CCOCC3)c(=O)c(-c3cnc4ccnn4c3)c2n1 | 7.06
* Cc1nc(N[C@H](C)c2cccc(C(F)F)c2F)c2cn(N3CCOCC3)c(=O)c(OCC3(C)COC3)c2n1 | 6.97
* COc1c(=O)n(C2(CF)CCN(C(C)=O)C2)cc2c(N[C@H](C)c3cccc([N+](=O)[O-])c3C)nc(C)nc12 (stereo partly drawn) | 7.55
* Cc1nc(N[C@H](C)c2cccc(C(F)F)c2F)c2cn(C3(CF)CC3)c(=O)c(N3CCC(F)(F)CC3)c2n1 | 6.92
* Cc1nc(N[C@H](C)c2cccc(C(F)F)c2F)c2cn(C3(CF)CC3)c(=O)c(-n3ncc4ncccc43)c2n1 | 7.24
* Cc1nc(N[C@H](C)c2cccc(C(F)F)c2F)c2cn(C3(CF)CC3)c(=O)c(N3C4CCC3COC4)c2n1 | 6.88
* Cc1nc(N[C@H](C)c2cccc([N+](=O)[O-])c2C)c2cn(C3(CF)CC3)c(=O)cc2n1 | 6.88
* [2H]C([2H])([2H])Oc1c(=O)n(C2(CF)CC2)cc2c(N[C@H](C)c3cccc(S(F)(F)(F)(F)F)c3)nc(C)nc12 | 7.14
* CC(=O)N1CCN(c2c(=O)n(C3(CF)CC3)cc3c(N[C@H](C)c4cccc(C(F)F)c4F)nc(C)nc23)CC1 | 7.20
* Cc1nc(N[C@H](C)c2cccc(S(F)(F)(F)(F)F)c2)c2cn(N3CCOCC3)c(=O)c(N3CCOCC3)c2n1 | 7.11
* Cc1nc(N[C@H](C)c2cccc([N+](=O)[O-])c2C)c2cn(C3(CF)CC3)c(=O)c(N3CCOCC3)c2n1 | 7.65
* COc1c(=O)n(C2(CF)CCN(C(C)=O)C2)cc2c(N[C@H](C)c3cccc(C#N)c3C)nc(C)nc12 (stereo partly drawn) | 7.47
* Cc1nc(N[C@H](C)c2cccc(C(F)F)c2F)c2cn(C3(CF)CC3)c(=O)c(N3[C@@H](C)COC[C@@H]3C)c2n1 | 7.14
* Cc1nc(N[C@H](C)c2cccc(C(F)F)c2F)c2cn(C3(CF)CC3)c(=O)c(N3CCN(C4(C)COC4)CC3)c2n1 | 7.46
* [2H][C@](C)(Nc1nc(C)nc2c(N3CCOCC3)c(=O)n(C3(CF)CC3)cc12)c1cccc(C(F)F)c1F | 7.52
* [2H][C@](C)(Nc1nc(C)nc2c(N3CCC(S(C)(=O)=O)CC3)c(=O)n(C3(CF)CC3)cc12)c1cccc(C(F)F)c1F | 7.22
* Cc1nc(N[C@H](C)c2cccc(C(F)F)c2F)c2cn(C3(CF)CC3)c(=O)c(N3CCOC[C@@H]3CF)c2n1 | 7.10
* Cc1nc(N[C@H](C)c2cccc(C(F)F)c2F)c2cn(C3(CF)CC3)c(=O)c(N3CCN(C4CC4)CC3)c2n1 | 7.36
* [2H]C([2H])([2H])Oc1c(=O)n(C2(CF)CC2)cc2c(N[C@H](C)c3cccc(C(F)F)c3F)nc(C)nc12 | 7.35
* Cc1nc(N[C@H](C)c2cccc(C(F)F)c2F)c2cn(C3(CF)CC3)c(=O)c(N3Cc4cn(C5CC5)nc4C3)c2n1 | 7.32
* Cc1nc(N[C@H](C)c2cccc(C(F)F)c2F)c2cn(C3(CF)CC3)c(=O)c(C(F)(F)F)c2n1 | 6.90
* Cc1nc(N[C@H](C)c2cccc(C(F)F)c2F)c2cn(C3(CF)CC3)c(=O)c(N3CCOC[C@@H]3C)c2n1 | 7.70
* Cc1nc(N[C@H](C)c2cccc(S(F)(F)(F)(F)F)c2)c2cn(N3CCOCC3)c(=O)c(N3CCN(C)CC3)c2n1 | 7.13
* Cc1nc(N[C@H](C)c2cccc(C(F)F)c2F)c2cn(C3(CF)CC3)c(=O)c(N3CCOCC3=O)c2n1 | 6.78
* Cc1nc(N[C@H](C)c2cccc(C(F)F)c2F)c2cn(C3(CF)CC3)c(=O)c(N3CC4CC(C3)N4C3COC3)c2n1 | 7.12
* Cc1nc(N[C@H](C)c2cccc(C(F)F)c2F)c2cn(C3(CF)CC3)c(=O)c(N3CCN(CC4COC4)CC3)c2n1 | 7.15
* Cc1nc(N[C@H](C)c2cccc(C(F)F)c2F)c2cn(C3(CF)CC3)c(=O)c(OC(F)F)c2n1 | 7.26

---

pIC50: −log10 of the molar value.
This document collects pIC50 values reported for CYP2C9 (Homo sapiens).
Result Type: pIC50

* Cc1nc(N[C@H](C)c2cccc(C(F)F)c2F)c2cn(C3(CF)CC3)c(=O)c(N3CCOC[C@@H]3C)c2n1 [Example 40] | < 4.52
* [2H][C@](C)(Nc1nc(C)nc2c(N3CCOCC3)c(=O)n(C3(CF)CC3)cc12)c1cccc(C(F)F)c1F [Example 55] | < 4.52

---

# pIC50 per record follows
test system: p-ERK pathway in H358 cells; assay: p-ERK pathway inhibition in H358 cells (Advanced phospho-ERK (Thr202/Tyr204) cellular kit, HTRF); type: cell-based; conditions: Homo sapiens, NCI-H358, 1 h compound incubation
pIC50: −log10 of the molar value.
Result Type: pIC50

- Cc1nc(N[C@H](C)c2cccc(C(F)F)c2F)c2cn(C3(CF)CC3)c(=O)c(N3CCOC[C@@H]3C(C)C)c2n1: 7.17
- Cc1nc(N[C@H](C)c2cccc(C#N)c2C)c2cn(C3(CF)CC3)c(=O)c(N3CCOCC3)c2n1: 7.43
- Cc1nc(N[C@H](C)c2cccc(C(F)F)c2F)c2cn(C3(CF)CC3)c(=O)c(N3CCN(C4COC4)CC3)c2n1: 7.51
- Cc1nc(N[C@H](C)c2cccc(C#N)c2C)c2cn(N3CCOCC3)c(=O)c(N3CCOCC3)c2n1: 7.21

---

system: p-ERK pathway in H358 cells; assay: p-ERK pathway inhibition in H358 cells (Advanced phospho-ERK (Thr202/Tyr204) cellular kit, HTRF); type: cell-based; conditions: Homo sapiens, NCI-H358, 1 h compound incubation
pIC50: −log10 of the molar value.
Result Type: pIC50

- COC1(c2c(=O)n(C3(CF)CC3)cc3c(N[C@H](C)c4cccc(C(F)F)c4F)nc(C)nc23)COC1: 7.37
- Cc1nc(N[C@H](C)c2cccc(C(F)F)c2F)c2cn(C3(CF)CC3)c(=O)c(N3C[C@@H](C)O[C@@H](C)C3)c2n1: 6.93
- Cc1nc(N[C@H](C)c2cccc(C(F)F)c2F)c2cn(C3(CF)CC3)c(=O)c(N3CCO[C@@H](C)C3)c2n1: 7.31
- COc1c(=O)n(C2(CF)CC2)cc2c(N[C@H](C)c3cccc(C(C)(F)F)c3F)nc(C)nc12: 7.05
- Cc1nc(N[C@H](C)c2cccc(C(F)F)c2F)c2cn(C3(CF)CC3)c(=O)c(N3CC(S(C)(=O)=O)C3)c2n1: 6.96
- Cc1nc(N[C@H](C)c2cccc(C#N)c2C)c2cn(N3CCOCC3)c(=O)c(N3CCOC[C@@H]3C)c2n1: 7.13
- COc1c(=O)n(C2(C)CCN(C(C)=S)C2)cc2c(N[C@H](C)c3cccc(C(F)F)c3F)nc(C)nc12 (stereo partly shown): 7.28
- Cc1nc(N[C@H](C)c2cccc(C(F)F)c2F)c2cn(N3CCOCC3)c(=O)c(N3CCO[C@@H](C)C3)c2n1: 7.10
- CC[C@H]1COCCN1c1c(=O)n(C2(CF)CC2)cc2c(N[C@H](C)c3cccc(C(F)F)c3F)nc(C)nc12: 6.95
- Cc1nc(N[C@H](C)c2cccc(C(F)F)c2F)c2cn(C3(CF)CC3)c(=O)c(N3CCN(CC4CC4)CC3)c2n1: 7.07
- Cc1nc(N[C@H](C)c2cccc(C(F)F)c2F)c2cn(N3CCOCC3)c(=O)c(-c3cnc4c(cnn4C)c3)c2n1: 7.30
- COC1(c2c(=O)n(C3(CF)CC3)cc3c(N[C@H](C)c4cccc(C(F)F)c4F)nc(C)nc23)CCOC1 (stereo partly shown): 6.88
- COc1c(=O)n(C2(CF)CC2)cc2c(N[C@H](C)c3cccc(C(F)F)c3F)nc(C)nc12: 7.68
- Cc1nc(N[C@H](C)c2cccc(S(F)(F)(F)(F)F)c2)c2cn(C3(CF)CC3)c(=O)c(N3CCOCC3)c2n1: 6.95
- Cc1nc(N[C@H](C)c2cccc(C(F)F)c2F)c2cn(C3(CF)CC3)c(=O)c(N3CCC(N4CCCC4)CC3)c2n1: 6.86
- Cc1nc(N[C@H](C)c2cccc(S(F)(F)(F)(F)F)c2)c2cn(N3CCOCC3)c(=O)c(-c3ccc(C#N)nc3)c2n1: 6.74
